assayInfo: relative permittivity at various frequencies (dimensionless)
recordedConditions: 293.15 K; 100 kPa; Liquid; Frequency=1 MHz; Parallel plate capacitor
Threshold check on relative permittivity: at or above 10 gives y, strictly below gives n.

| compound | answerLabel |
| --- | --- |
| CCCCCCCCCCO [decan-1-ol] | n |
| CCCCO [butan-1-ol] | y |

// inclusive: relative permittivity at least 10? input: CCCO [propan-1-ol] y

Check this compound for relative permittivity at or above 10: NC1CCCCC1 [cyclohexylamine] n

Assess whether reported relative permittivity for CCCCCCCO [heptan-1-ol] sits at 10 or higher. y

###

assayInfo: relative permittivity at various frequencies (dimensionless)
recordedConditions: 303.15 K; 100 kPa; Liquid; Frequency=1 MHz; Parallel plate capacitor
Reported relative permittivity values follow for various compounds
Give your answer as a number; write no unit.

Suppose we examine the compound `NC1CCCCC1` ; what relative permittivity value has been reported? 4.45

Fill blank: measured relative permittivity of the compound `CCCCCCCCCCO` is ____. 7.64

What measured relative permittivity goes with `CCCCCCCO` ? 10.98

GET /values?readout=relative permittivity&item= `CCCO` 19.84

Please report the recorded relative permittivity for `CCCCO` . 16.95

// data source = the NIST ThermoML archive (doi:10.1016/j.jct.2015.07.032)
